# target-of-assay: ROS1 (human)
# assay-remarks: radiometric filter-binding kinase assay, Kinase HotSpot
# reported-conditions: compound 0.5 µM; ATP 10 µM
observed-property: residual activity (%)
Field: numeric (%). Do not append units.

>  <molecule-smiles>
CC(C)(C)c1cc(C=C(C#N)C#N)cc(Br)c1O

>  <residual activity (%)>
93.2

$$$$

Please report the measured residual activity for `CN(C)c1ccc(/C=C2\C(=O)Nc3ccccc32)cc1`
94.9

Please report the measured residual activity for `Fc1ccc(-c2nc3n(c2-c2ccncc2)CCS3)cc1`
95.8

Please report the measured residual activity for `CN(C)CCCn1cc(C2=C(c3c[nH]c4ccccc34)C(=O)NC2=O)c2ccccc21`
62.8

Please report the measured residual activity for `O=C(c1cc2cc(O)ccc2[nH]1)c1cc2cc(O)ccc2[nH]1`
105

Please report the measured residual activity for `COc1cc2ncnc(Nc3ccc(Oc4ccccc4)cc3)c2cc1OC`
95.3

Please report the measured residual activity for `CCCCc1c(-c2ccc(OC)cc2)[nH]c2nccnc12`
37.5

Please report the measured residual activity for `CO[C@@H]1[C@H](N(C)C(=O)c2ccccc2)C[C@H]2O[C@]1(C)n1c3ccccc3c3c4c(c5c6ccccc6n2c5c31)C(=O)NC4`
6.53

Please report the measured residual activity for `N#C/C(=C\c1ccc(O)c(O)c1)C(=O)NCc1ccccc1`
101

Please report the measured residual activity for `Cc1cncc2cccc(S(=O)(=O)N3CCCN(C(=O)CN)C[C@H]3C)c12`
60.3

----------
# target-of-assay: MAPKAPK2 (human)
# assay-remarks: radiometric filter-binding kinase assay, Kinase HotSpot
# reported-conditions: compound 0.5 µM; ATP 10 µM
observed-property: residual activity (%)
Field: numeric (%). Do not append units.

>  <molecule-smiles>
COc1ccc2c(c1)/C(=C/c1cnc[nH]1)C(O)=N2

>  <observed-property>
residual activity

>  <result-number>
99.4

$$$$

Please report the measured residual activity for `Cc1cccc(-c2nc(C(C)(C)C)[nH]c2-c2ccc3c(c2)OCO3)n1`
103

Please report the measured residual activity for `Fc1ccc(-c2nc3n(c2-c2ccncc2)CCS3)cc1`
101

Please report the measured residual activity for `CC(C)(C)c1cc(C=C(C#N)C#N)cc(Br)c1O`
92.3

----------
The following molecules are listed with their measured residual activity values.
# target-of-assay: TAOK1 (human) (UniProt Q7L7X3)
# Sequence (Q7L7X3 whole entry, looked up): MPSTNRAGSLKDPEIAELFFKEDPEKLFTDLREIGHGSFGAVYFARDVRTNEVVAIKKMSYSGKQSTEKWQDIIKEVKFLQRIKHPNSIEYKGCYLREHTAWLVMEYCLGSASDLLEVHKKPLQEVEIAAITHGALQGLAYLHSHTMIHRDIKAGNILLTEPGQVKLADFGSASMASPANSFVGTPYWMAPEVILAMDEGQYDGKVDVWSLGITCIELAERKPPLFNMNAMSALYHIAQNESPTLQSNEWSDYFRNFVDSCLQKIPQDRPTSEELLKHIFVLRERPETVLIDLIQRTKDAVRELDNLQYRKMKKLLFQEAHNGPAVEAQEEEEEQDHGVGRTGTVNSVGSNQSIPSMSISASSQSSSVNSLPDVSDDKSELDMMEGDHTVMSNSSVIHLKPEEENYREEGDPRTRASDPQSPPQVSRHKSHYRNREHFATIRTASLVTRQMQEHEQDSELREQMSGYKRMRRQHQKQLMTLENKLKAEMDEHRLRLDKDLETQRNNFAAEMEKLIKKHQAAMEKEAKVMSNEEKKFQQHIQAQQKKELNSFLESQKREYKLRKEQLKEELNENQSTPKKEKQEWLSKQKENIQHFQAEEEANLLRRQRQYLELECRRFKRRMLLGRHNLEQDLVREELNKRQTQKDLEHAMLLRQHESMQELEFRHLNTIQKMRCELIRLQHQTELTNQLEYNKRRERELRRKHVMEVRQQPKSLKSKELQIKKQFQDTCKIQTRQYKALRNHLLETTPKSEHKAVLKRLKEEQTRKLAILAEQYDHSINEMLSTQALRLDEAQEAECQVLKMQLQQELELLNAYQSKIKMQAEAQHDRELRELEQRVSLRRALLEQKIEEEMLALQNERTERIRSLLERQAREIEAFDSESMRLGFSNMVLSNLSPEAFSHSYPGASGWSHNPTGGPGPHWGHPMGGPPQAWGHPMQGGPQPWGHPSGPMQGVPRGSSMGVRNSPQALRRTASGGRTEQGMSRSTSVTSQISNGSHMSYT
# assay-remarks: radiometric filter-binding kinase assay, Kinase HotSpot
# reported-conditions: compound 0.5 µM; ATP 10 µM
Field: numeric (%). Do not append units.

Sample records with residual activity:
>  <molecule-smiles>
N#C/C(=C\c1ccc(O)c(O)c1)C(=O)NCc1ccccc1

>  <result-number>
95.1

$$$$
>  <molecule-smiles>
CN(C)CCCn1cc(C2=C(c3c[nH]c4ccccc34)C(=O)NC2=O)c2ccccc21

>  <result-number>
80.8

$$$$
>  <molecule-smiles>
O=C1C(Cl)=C(N2C(=O)CCC2=O)C(=O)c2ccccc21

>  <result-number>
83.1

$$$$
>  <molecule-smiles>
O=C1Nc2ccc(Br)cc2/C1=C\c1cc2c([nH]1)CCCC2

>  <result-number>
92.3

$$$$
>  <molecule-smiles>
Cn1c2ccccc2c2c3c(c4c5ccccc5n(CCC#N)c4c21)CNC3=O

>  <result-number>
43.9

$$$$

Fill: residual activity (TAOK1 (human) (UniProt Q7L7X3)) for this molecule `Fc1ccc(-c2nc3n(c2-c2ccncc2)CCS3)cc1`
97.7

Fill: residual activity (TAOK1 (human) (UniProt Q7L7X3)) for this molecule `O=C1NC(=O)c2c1c1c3ccccc3[nH]c1n1cncc21`
135

Fill: residual activity (TAOK1 (human) (UniProt Q7L7X3)) for this molecule `Cc1cccc(-c2nc(C(C)(C)C)[nH]c2-c2ccc3c(c2)OCO3)n1`
97.6

Fill: residual activity (TAOK1 (human) (UniProt Q7L7X3)) for this molecule `COc1ccc(S(=O)(=O)N(CCO)c2ccccc2CN(C)C/C=C/c2ccc(Cl)cc2)cc1`
103

Fill: residual activity (TAOK1 (human) (UniProt Q7L7X3)) for this molecule `COc1cc(Nc2c(C#N)cnc3cc(OCCCN4CCN(C)CC4)c(OC)cc23)c(Cl)cc1Cl`
52.8

----------
# target-of-assay: TTK (human) (UniProt P33981)
# Sequence (P33981 whole entry, looked up): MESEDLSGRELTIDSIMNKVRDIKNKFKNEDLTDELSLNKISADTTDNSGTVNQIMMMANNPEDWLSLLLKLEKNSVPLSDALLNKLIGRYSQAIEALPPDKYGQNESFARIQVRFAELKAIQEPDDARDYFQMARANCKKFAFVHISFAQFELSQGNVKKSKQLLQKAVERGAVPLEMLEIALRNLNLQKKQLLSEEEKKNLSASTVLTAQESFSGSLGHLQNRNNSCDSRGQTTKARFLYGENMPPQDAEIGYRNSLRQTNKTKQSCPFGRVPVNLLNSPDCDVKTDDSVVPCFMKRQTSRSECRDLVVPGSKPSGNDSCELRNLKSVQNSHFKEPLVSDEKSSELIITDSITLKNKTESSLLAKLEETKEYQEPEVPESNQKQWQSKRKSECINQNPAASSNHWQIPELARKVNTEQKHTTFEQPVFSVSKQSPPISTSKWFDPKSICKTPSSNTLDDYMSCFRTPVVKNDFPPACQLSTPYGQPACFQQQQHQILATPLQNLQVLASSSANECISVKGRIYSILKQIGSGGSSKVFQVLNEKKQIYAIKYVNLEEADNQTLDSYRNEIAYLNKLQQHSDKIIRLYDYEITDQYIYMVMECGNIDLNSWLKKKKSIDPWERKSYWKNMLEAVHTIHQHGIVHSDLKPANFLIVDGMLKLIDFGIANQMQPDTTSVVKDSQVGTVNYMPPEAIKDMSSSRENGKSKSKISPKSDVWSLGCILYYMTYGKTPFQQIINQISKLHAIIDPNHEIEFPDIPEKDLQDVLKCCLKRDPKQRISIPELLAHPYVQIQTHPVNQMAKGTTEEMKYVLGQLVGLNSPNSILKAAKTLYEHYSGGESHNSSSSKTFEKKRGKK
# assay-remarks: radiometric filter-binding kinase assay, Kinase HotSpot
# reported-conditions: compound 0.5 µM; ATP 10 µM
observed-property: residual activity (%)
Field: numeric (%). Do not append units.

Sample records with residual activity:
>  <molecule-smiles>
CN(C)CCCn1cc(C2=C(c3c[nH]c4ccccc34)C(=O)NC2=O)c2ccccc21

>  <result-number>
98.2

$$$$
>  <molecule-smiles>
CN(C)S(=O)(=O)c1ccc2c(c1)/C(=C/c1cc3c([nH]1)CCCC3)C(=O)N2

>  <result-number>
89.7

$$$$
>  <molecule-smiles>
c1ccc2c(-c3ccncc3)c[nH]c2c1

>  <result-number>
112

$$$$
>  <molecule-smiles>
COc1cc2ncnc(Nc3ccc(Oc4ccccc4)cc3)c2cc1OC

>  <result-number>
90

$$$$
>  <molecule-smiles>
Ic1cccc(CSc2nnc(-c3ccncc3)o2)c1

>  <result-number>
103

$$$$
>  <molecule-smiles>
O=C1C(Cl)=C(N2C(=O)CCC2=O)C(=O)c2ccccc21

>  <result-number>
108

$$$$
>  <molecule-smiles>
O=C(c1cc2cc(O)ccc2[nH]1)c1cc2cc(O)ccc2[nH]1

>  <result-number>
92.9

$$$$
>  <molecule-smiles>
O=C1c2ccccc2-c2nc3nnnn3nc21

>  <result-number>
125

$$$$
>  <molecule-smiles>
NC(=O)c1cccc(-c2cc(Nc3ccc(OC(F)(F)F)cc3)ncn2)c1

>  <result-number>
91.4

$$$$
>  <molecule-smiles>
Cn1c2ccccc2c2c3c(c4c5ccccc5n(CCC#N)c4c21)CNC3=O

>  <result-number>
69

$$$$

Please report the measured residual activity for `COc1ccc(Cl)cc1NC(=O)Nc1cc(C)nc2ccccc12`
103

Please report the measured residual activity for `CO[C@@H]1[C@H](N(C)C(=O)c2ccccc2)C[C@H]2O[C@]1(C)n1c3ccccc3c3c4c(c5c6ccccc6n2c5c31)C(=O)NC4`
55

----------
# target-of-assay: ABL2 (human)
# assay-remarks: radiometric filter-binding kinase assay, Kinase HotSpot
# reported-conditions: compound 0.5 µM; ATP 10 µM
observed-property: residual activity (%)
Field: numeric (%). Do not append units.

Sample records with residual activity:
>  <molecule-smiles>
COc1cc2ncnc(Nc3ccc(Oc4ccccc4)cc3)c2cc1OC

>  <measure-unit>
%

>  <residual activity>
96.4

$$$$
>  <molecule-smiles>
CC(C)(C)c1cc(C=C(C#N)C#N)cc(Br)c1O

>  <measure-unit>
%

>  <residual activity>
57.1

$$$$
>  <molecule-smiles>
O=C1C(Cl)=C(N2C(=O)CCC2=O)C(=O)c2ccccc21

>  <measure-unit>
%

>  <residual activity>
106

$$$$
>  <molecule-smiles>
COc1ccc(C(=O)Nc2sc3c(c2C(N)=O)CCCC3)cc1OC

>  <measure-unit>
%

>  <residual activity>
101

$$$$
>  <molecule-smiles>
Cn1c2ccccc2c2c3c(c4c5ccccc5n(CCC#N)c4c21)CNC3=O

>  <measure-unit>
%

>  <residual activity>
42.3

$$$$

Please report the measured residual activity for `CS(=O)(=O)CCNCc1ccc(-c2ccc3ncnc(Nc4ccc(OCc5cccc(F)c5)c(Cl)c4)c3c2)o1`
97.3

Please report the measured residual activity for `COc1ccc2c(c1)c(C1=C(c3c[nH]c4ccccc34)C(=O)NC1=O)cn2CCCN(C)C`
77.7

----------
The following molecules are listed with their measured residual activity values.
# target-of-assay: PIM1 (human)
# assay-remarks: radiometric filter-binding kinase assay, Kinase HotSpot
# reported-conditions: compound 0.5 µM; ATP 10 µM
Field: numeric (%). Do not append units.

Sample records with residual activity:
>  <molecule-smiles>
COc1cc2ncnc(Nc3ccc(Oc4ccccc4)cc3)c2cc1OC

>  <result-number>
102

$$$$
>  <molecule-smiles>
NC(=O)c1cccc(-c2cc(Nc3ccc(OC(F)(F)F)cc3)ncn2)c1

>  <result-number>
101

$$$$
>  <molecule-smiles>
COc1ccc2c(c1)c(C1=C(c3c[nH]c4ccccc34)C(=O)NC1=O)cn2CCCN(C)C

>  <result-number>
11.6

$$$$
>  <molecule-smiles>
N#Cc1c[nH]c2c[nH]/c(=N\Cc3cccnc3)cc2/c1=N\c1ccc(F)c(Cl)c1

>  <result-number>
92.7

$$$$
>  <molecule-smiles>
O=C1C(Cl)=C(N2C(=O)CCC2=O)C(=O)c2ccccc21

>  <result-number>
100

$$$$

Fill: residual activity (PIM1 (human)) for this molecule `CC(C)(C)c1cc(C=C(C#N)C#N)cc(Br)c1O`
94.7

Fill: residual activity (PIM1 (human)) for this molecule `Ic1cccc(CSc2nnc(-c3ccncc3)o2)c1`
102

Value source: the kinase profiling compilation of Christmann-Franck et al. (2016)
